- System: CEM cells HIV-1 protection, formazan growth assay
- Run description: NCI AIDS Antiviral Assay
- Condition label: measured here: growth of uninfected CEM cells
Measured pIC50 values are reported for all entries that follow.
Hey, just a heads up that pIC50 is the negative log base 10 of the concentration in molar.

Field: example entries. Status: answers known.
[
  {
    "Compound": "O=[N+]([O-])c1cc2n[nH]nc2c2nonc12",
    "pIC50": 5.32
  },
  {
    "Compound": "NCCCN=c1ccc2c3c1c(O)c1c(O)ccc(=O)c1c3[nH]n2CCNCCO",
    "pIC50": 5.97
  }
]

// field: pIC50; key: N#CC(NNC(=O)Cc1ccccc1)c1c(O)ccc2ccccc12 (stereo unspecified) ; value = 5.41

// field: pIC50; key: COc1cc2nc3c(nc2cc1OC)-c1ccccc1C3=O ; value = 5.03

// field: pIC50; key: CCCCCCCCCCCCCCCCCCOP(=O)(O)OCCC=C(c1cc(Cl)c(O)c(C(=O)O)c1)c1cc(Cl)c(O)c(C(=O)O)c1 ; value = 4.20

// field: pIC50; key: O=c1c(O)c(-c2cc(O)c(O)c(O)c2)oc2cc(O)cc(O)c12 ; value = 4.86

// field: pIC50; key: Nc1n[n+]([O-])c2ccc(Cl)cc2[n+]1[O-] ; value = 5.45

// field: pIC50; key: CC(CN)OC12CC3CC(CC(C3)C1)C2 (stereo unspecified) ; value = 3.98

====

- Tested on: CEM cells HIV-1 protection, formazan growth assay
- Run description: NCI AIDS Antiviral Assay
- Condition label: measured here: growth of uninfected CEM cells
pIC50: −log10 of the molar value.
Measured metric: pIC50

Field: example entries. Status: answers known.
[
  {
    "Molecule": "O=c1c(-c2ccccc2)c2oc(c1-c1ccccc1)CSCc1cccc(c1)CSC2",
    "Measured metric": "pIC50",
    "Result": "< 5.77"
  },
  {
    "Molecule": "O=c1c2nn3c(=O)n(-c4ccccc4)c(=O)c3nn2c(=O)n1-c1ccccc1",
    "Measured metric": "pIC50",
    "Result": "< 3.70"
  },
  {
    "Molecule": "O=C1CCC[C@H]2O[C@@H](COC(=O)c3ccccc3)C[C@H]2O1",
    "Measured metric": "pIC50",
    "Result": "< 3.70"
  }
]

// field: pIC50; key: O=C1CC(c2ccoc2)NC(=O)N1CCCl (stereo not given) ; value = < 3.70

// field: pIC50; key: O=c1c2ccccc2ncn1COCc1ccccc1 ; value = < 3.70

====

Measured IC50 values are reported for all entries that follow.
- System: CEM cells HIV-1 protection, formazan growth assay
- Run description: NCI AIDS Antiviral Assay
- Condition label: measured here: growth of uninfected CEM cells
Kindly answer with a numeric value in µM, unit omitted.

[
  {
    "Compound": "C=C(C)[C@@H]1CC[C@]2(COC(=O)CC(C)CC(=O)O)CC[C@]3(C)[C@H](CC[C@@H]4[C@@]5(C)CC[C@H](OC(=O)CC(C)CC(=O)O)C(C)(C)[C@@H]5CC[C@]43C)[C@@H]12 (some centres undefined)",
    "Target of assay": "CEM cells HIV-1 protection, formazan growth assay",
    "IC50, µM": 19.1
  },
  {
    "Compound": "O=c1c(Cl)c(Cl)cnn1CCc1ccncc1",
    "Target of assay": "CEM cells HIV-1 protection, formazan growth assay",
    "IC50, µM": 7.08
  },
  {
    "Compound": "NCCc1ccc(O)c(O)c1",
    "Target of assay": "CEM cells HIV-1 protection, formazan growth assay",
    "IC50, µM": 132
  }
]

Let us move to another entry and its IC50.
// field: IC50; key: c1ccc2c3c([nH]c2c1)[C@@H]1CCN2CCC[C@@H]2N1CC3 ; value = 97.7

From: PubChem BioAssay AID179
